pIC50: −log10 of the molar value. Where a name gives a salt, the structure may show the parent alone.
Please respond with reported pIC50 for every item in the list.

Measured pIC50 for this entry CCN(C)C(=O)OCC1CCCN(C2Cc3ccccc3C2)C1 (centres undefined) on Acetylcholinesterase (Homo sapiens): < 4.00

Form: item C#CCN1CCCC(COC(=O)Nc2ccccc2)C1 (centres undefined) ; test system Acetylcholinesterase (Homo sapiens); pIC50: < 4.00

Measured pIC50 (Acetylcholinesterase (Homo sapiens)), entry `C#CCN1CCC(COC(=O)N(C)CC)CC1` : < 4.00

Item C#CCN1CCCC(COC(=O)N(C)CC)C1 (centres undefined) ; assay system Acetylcholinesterase (Homo sapiens); pIC50 reported as < 4.00

Test item `CCN(C)C(=O)OC1CCN(C2Cc3ccccc3C2)CC1` ; Acetylcholinesterase (Homo sapiens); reported pIC50 was < 4.00

Item O=C(Nc1ccccc1)OC1CCCN(C2Cc3ccccc3C2)C1 (centres undefined) was tested on Acetylcholinesterase (Homo sapiens); the reported pIC50 is < 4.00

Case CC(C)c1ccc(NC(=O)OC2CCCN(Cc3ccccc3)C2)cc1 (centres undefined) , Acetylcholinesterase (Homo sapiens), pIC50 recorded as < 4.00

The molecule `CC(C)c1ccc(NC(=O)OCC2CCN(Cc3ccccc3)CC2)cc1` on Acetylcholinesterase (Homo sapiens): pIC50 was 5.65

Reported pIC50 (Acetylcholinesterase (Homo sapiens)) for entry C#CCN[C@@H]1CCc2ccccc21 [RASAGILINE MESYLATE] is < 4.00

Tested on Acetylcholinesterase (Homo sapiens): `OC1CCN(C2Cc3ccccc3C2)CC1` . Observed pIC50: < 4.00

Entry CC(C)c1ccc(NC(=O)OCC2CCCN(C3Cc4ccccc4C3)C2)cc1 (centres undefined) , tested on Acetylcholinesterase (Homo sapiens), has a reported pIC50 of 4.73

Value sought: pIC50, system Acetylcholinesterase (Homo sapiens), item OCC1CCCN(C2Cc3ccccc3C2)C1 (centres undefined) . Result: < 4.00

The value of pIC50 recorded for `C#CCN1CCC(O)CC1` when tested on Acetylcholinesterase (Homo sapiens) reads < 4.00

Entry CC(C)c1ccc(NC(=O)OC2CCCN(C3Cc4ccccc4C3)C2)cc1 (centres undefined) : pIC50 on Acetylcholinesterase (Homo sapiens) = 5.10
